molecular target: recombinant homotrimeric HA A/Netherlands/219/03 H7N7 (Influenza A virus A/Netherlands/219/03(H7N7)); assay: protein microarray, purified IgG, trimeric HA; conditions: remark: other sources report otherwise
Items are presented alongside their recorded Trimeric HA Binding: RLU.
Unit RLU implied. Number only.

binder: TCN-545 (5082_I15) (antibody, V domains shown) VH: QVQLQQWGAGLLKPSETLSLSCAVFGGSFSDYYWTWIRQPPGKGLEWIGEIKHSGRTNYNPSLESRVTISVDTSKNQFSLKLSSVTAADTAIYYCARGTDPDTEGYCRSGSCSAFDFWGQGTLVTVSS VL: EIVLTQSPGTLSLSPGERATLSCRASHFVNYRSLAWYQQTPGQVPRLLIYGASTRATGIPDRFSGSGSGTDFTLTISRLEPEDFAVYFCQQYGGSPRYTFGQGTRLEIK
experimental result: 1490

# ---- query binder ----
Q. # lookup: Trimeric HA Binding: RLU of TCN-543 (5081_G23) (antibody, V domains shown) VH: QVHLVQSGAEVRKPGDSVKVSCKTSGYTFSTYPVAWVRQVPGQGLEWMGWISTYNGNTNFAQNFQGRVTLTTDTTTNTAYMEVRSLKFDDTAVYYCARVEGSYRDFWNNQNRFDPWGQGTLVTVSS VL: SYVLTQPPSVSVAPGQTARISCGGSNIGGKSVHWYQQKPGQAPVLVVYDDSGRPSGIPERFSGSNSGDTATLTISRVEAGDEADYFCQVWDNFGGVFGTGTKVTVL
A. 162
